Endpoint label: melting point

Cc1c(CCl)cc(C(=O)O)cc1CCl ... 157 to 159 °C
Cc1cc(C#N)ccc1S(=O)(=O)Cl ... 64 to 66 °C
CC(=O)Nc1ccc(S(=O)(=O)N2CCC(N)CC2)cc1 ... 212 to 214 °C
Cc1nn(CCO)c(N)c1C ... 129 to 131 °C
O=C(O)C1CCN(C(=O)COc2ccccc2)CC1 ... 73 to 75 °C
O=C(O)CCOC1CCOCC1 ... 54 to 56 °C

Look up melting point for the entries below, preserving their order.
1. CS(=O)(=O)Nc1cccc(CN)c1
2. CC(Oc1ccc(F)cc1)C(=O)NN (centres undefined)
3. ClCc1cc(Br)c2c(c1)OCO2
4. N#CC1(C(=O)O)CCc2ccccc2C1 (centres undefined)

RESULT:
1. 126 to 128 °C
2. 164 to 167 °C
3. 100 to 102 °C
4. 123 to 125 °C

----------
Endpoint label: melting point

O=C(O)Cc1ccc(N2CCCC2=O)cc1 ... 120 to 122 °C

List melting point for every entry below, keeping the order given.
1. O=C(NO)C1CC1
2. COC(=O)c1ccc2c(Cl)ncnc2c1
3. NC(CN1CCCC1=O)c1ccccc1 (centres undefined)
4. O=Cc1c[nH]c2ncccc12
5. Nc1ncc(Cl)s1
6. O=C(Cn1ccnc1)c1ccc(F)cc1
7. O=c1[nH]cnc2ccc(I)cc12
8. O=C1CCCN1c1ccccc1[N+](=O)[O-]

RESULT:
1. 127 to 129 °C
2. 104 to 106 °C
3. 99 to 101 °C
4. 211 to 213 °C
5. 90 to 92 °C
6. 150 to 152 °C
7. 272 to 274 °C
8. 77 to 79 °C

Respectfully, I request melting point for each entry included below.
1. O=C(O)C1CCN(S(=O)(=O)c2cccs2)CC1
2. Cc1cccc(NC(N)=S)c1
3. COc1ccc(NS(=O)(=O)c2ccc(N)c(N)c2)cc1
4. Cc1nn(-c2ccccc2Cl)c(C(F)F)c1C(=O)O
5. Cc1ccc(CNC(=O)n2ccnc2)cc1

RESULT:
133 to 135 °C
110 to 112 °C
163 to 165 °C
204 to 206 °C
132 to 134 °C

----------
Answer each item with its documented melting point.

Please review the entries below; each comes with its answer.
Nc1ccccc1-c1nnnn1C1CC1 ... 97 to 99 °C
O=C(NCC(F)(F)F)c1ccc(O)cc1 ... 113 to 115 °C
COCCn1cnnc1S ... 79 to 81 °C
Cc1cccc(C)c1NC(=O)C(=O)O ... 163 to 165 °C
CNC(=O)C1CNCCO1 (centres undefined) ... 93 to 95 °C

For every item in the list below, what is its measured melting point?
1. Cc1ccc(Oc2ccc(N)cc2)nc1
2. NC1=C(c2nc3ccccc3[nH]2)C(=O)CN1N
3. Cc1csc(NC(=O)C2CCNCC2)n1

RESULT:
90 to 92 °C
296 to 300 °C
189 to 191 °C

----------
Endpoint label: melting point

For every listed record, write down its melting point.
1. O=C(O)CCNC(=O)c1ccccc1Cl
2. O=C(O)c1ccc(F)cc1OC(F)F
3. Nc1ccc(C(=O)NCc2ccccc2F)cc1

RESULT:
["82 to 84 °C", "115 to 117 °C", "95 to 97 °C"]

Please give melting point, item by item, for the list that follows.
1. N#Cc1ncn(CC(=O)O)n1
2. Cc1cc(NN)nc2ccccc12
3. CC(NC(=O)c1ccc(Br)cc1)C(=O)O (centres undefined)
4. Cc1csc(NC(=O)CCl)n1
5. CCNC(=O)NC1(C(=O)O)CCCC1
6. COc1ccc(CCC(=O)O)cc1O

RESULT:
96 to 98 °C
146 to 148 °C
138 to 140 °C
127 to 129 °C
142 to 144 °C
149 to 151 °C

# return melting point for each item in the list
1. O=C(Nc1ccc(F)cc1)N1CCC(=NO)CC1
2. O=C(O)C1CCCN(C(=O)CCOc2ccccc2)C1 (centres undefined)
3. Cc1csc(-c2no[nH]c2=N)n1
4. O=C(O)c1ccc(F)nc1
5. NC(=O)C1CCCn2ccnc21 (centres undefined)

RESULT:
1. 183 to 185 °C
2. 171 to 173 °C
3. 147 to 149 °C
4. 144 to 148 °C
5. 177 to 179 °C

----------
For each of the compounds below, state its melting point.

Examples from the recorded data:
COc1ccc(C(=O)CCCC(=O)O)cc1 ... 138 to 140 °C
Cc1ncncc1C(=O)O ... 174 to 176 °C
Cc1ccc(O)c(-c2nc3ccccc3[nH]2)c1 ... 259 to 261 °C
O=C(CCl)NCC(=O)Nc1ccc(F)c(F)c1F ... 160 to 162 °C
COC(=O)c1cc(OC)c(OC)c(OC)c1N ... 44 to 45 °C

Hello, I would appreciate it if you could give melting point for each entry below.
1. CC(C)CCNc1c(N)n(Cc2ccccc2)c(=O)[nH]c1=O
2. Cc1cc(C(=O)O)c(C)s1
3. Cc1ccsc1-c1nnc(N)o1
4. CC1NC(=O)c2ccccc2N(C)C1=O (stereo not given)
5. O=[N+]([O-])c1cc(S(=O)(=O)C(F)(F)F)ccc1Cl
6. O=C(CCl)NC1CCN(C(=O)CCc2ccccc2)CC1
7. Cc1c(-c2cccnc2)noc1N

RESULT:
1. 203 to 205 °C
2. 114 to 116 °C
3. 147 to 149 °C
4. 250 to 252 °C
5. 57 to 59 °C
6. 117 to 119 °C
7. 177 to 179 °C

Could I get melting point for every one of these entries?
1. CCOC(=O)c1nc2ccc(Br)cc2c(=O)[nH]1
2. Cc1nn(Cc2ccccc2)c(C)c1C=O
3. O=C(Cc1ccc(Br)cc1)Nc1ccsc1C(=O)O

RESULT:
1: 261 to 263 °C; 2: 72 to 74 °C; 3: 226 to 228 °C

----------
Exercise: for every item that follows, state its recorded melting point.

Examples from the recorded data:
COc1ccccc1-c1nn(Cc2ccccc2)cc1C(=O)O ... 152 to 154 °C
Nc1ccnn1Cc1ccncc1 ... 219 to 221 °C
CN[C@@H]1CN(C(=O)OC(C)(C)C)C[C@H]1O ... 89 to 91 °C
CSc1ccc(NC(=O)C(C)Cl)cc1 (stereo not given) ... 129 to 131 °C
FC(F)(F)c1nnc2ccc(Cl)nn12 ... 69 to 71 °C
Nc1nc(CN2CCN(c3nccs3)CC2)cs1 ... 169 to 171 °C
O=C(O)CSc1nnc(-c2ccccc2)n1-c1ccc(Cl)cc1 ... 224 to 226 °C
Cc1n[nH]c2ncc([N+](=O)[O-])cc12 ... 189 to 191 °C
O=C(O)C(c1ccccc1F)N1CCOCC1 (stereo not given) ... 189 to 191 °C
O=C(O)C=Cc1nc2ccccc2s1 ... 222 to 224 °C

For every item below, please supply its melting point.
1. COC(=O)C=Cn1c(=O)ccn2ncnc12
2. CC(C)(C)NS(=O)(=O)c1ccc(Cl)c(C(=O)O)c1

RESULT:
["239 to 241 °C", "179 to 181 °C"]

----------
Endpoint label: melting point

Parameters: items (list). Returns: melting point for each item.
1. O=C(NC1CCCCC1)c1cccnc1Cl
2. CCOC(=O)c1c(-c2ccccc2)csc1NC(=O)C(C)Cl (centres undefined)
3. NC1(C(=O)O)CCOC1 (centres undefined)
4. O=C(O)CSc1nnc(-c2ccc(F)cc2)n1CC1CCCO1 (centres undefined)
5. CC1CCCN(Cc2csc(N)n2)C1 (centres undefined)
6. O=C(CCl)N1CCCC1c1ccc2c(c1)OCCO2 (centres undefined)
7. N#Cc1cc2c([nH]c1=O)CCN(Cc1ccccc1)C2

RESULT:
1. 132 to 134 °C
2. 250 to 252 °C
3. 244 to 246 °C
4. 131 to 133 °C
5. 136 to 138 °C
6. 168 to 169 °C
7. 218 to 220 °C

Go through the list and state melting point for each entry.
1. CCCCCCOc1ccc(C=O)cc1OC
2. O=c1[nH]cnc2c(Br)cccc12
3. CSc1nccn1-c1ccc(C(=O)O)cc1
4. O=C(O)c1cccc2c3c([nH]c12)CCCC3
5. COc1ccc2c(c1)C(=O)CCN2

RESULT:
1. 38 to 42 °C
2. 317 to 319 °C
3. 296 to 298 °C
4. 190 to 192 °C
5. 114 to 116 °C

----------
Give melting point for every item shown.

CCOC(=O)C(NC(C)=O)C(C)=O (centres undefined) ... 44 to 46 °C

Provide reported melting point for each item, in the same order as listed.
1. O=Cc1ccc(-c2ccc([N+](=O)[O-])cc2Cl)o1
2. Sc1nnc(-c2ccc(Cl)cc2)o1
3. CCOC(=O)c1c(N)sc(C(=O)OCCOC)c1C

RESULT:
136 to 138 °C
88 to 90 °C
118 to 120 °C

Go through the list and state melting point for each entry.
1. CN(C)CCC(=O)O
2. CC(C)(C)CCCC(=O)O
3. CCC(=O)c1ccc(OC(F)F)cc1
4. Cc1cc(N2CCOCC2)ccc1N
5. Cc1ccc(-c2noc(CCC(=O)O)n2)cc1
6. Cc1ccc(C)c(S(=O)(=O)N2CCNCC2)c1

RESULT:
1. 130 to 132 °C
2. 36 to 38 °C
3. 39 to 43 °C
4. 89 to 91 °C
5. 143 to 145 °C
6. 108 to 110 °C

Hi team, please reply with melting point for each item in this list.
1. O=C1CCCN1c1cccc([N+](=O)[O-])c1
2. CC(C)c1[nH]nc(C(=O)O)c1[N+](=O)[O-]
3. COc1cc(S(N)(=O)=O)c(OC)cc1N
4. O=Cc1c[nH]nc1-c1ccccc1F

RESULT:
["107 to 109 °C", "149 to 151 °C", "203 to 205 °C", "114 to 116 °C"]
